- System: K-562 leukemia
- procedure-details: NCI tumour cell line growth inhibition, 48 h
quantity: TGI

For orientation, consider the following solved cases.
[
  {
    "molecule": "C=C1CC2CCCC12C=O (stereo unspecified)",
    "result-value": "> 10 µM"
  },
  {
    "molecule": "CCOP(=O)(OCC)C(C)(C)N(C)/C(F)=N/C(F)(F)F",
    "result-value": "> 100 µM"
  },
  {
    "molecule": "OCc1cc2c(ccc3sc4ccc5sc6ccc7ncccc7c6c5c4c32)s1",
    "result-value": "> 100 µM"
  },
  {
    "molecule": "CCOC(=O)c1ccccc1OC(=O)NNc1ccccc1",
    "result-value": "> 100 µM"
  },
  {
    "molecule": "O=C1c2[nH]cc(CNC3CN4CCC3CC4)c2C(=O)c2c1c(O)c1ccccc1c2O (stereo unspecified)",
    "result-value": "12.1 µM"
  },
  {
    "molecule": "Cc1cc([N+](=O)[O-])ccc1NC(=O)C(=O)C(C(=O)c1ccccc1-c1ccccc1)C1OC(=O)c2ccccc21 (stereo unspecified)",
    "result-value": "89.3 µM"
  },
  {
    "molecule": "COc1cc(=O)c2c(O)c3c(O)oc(C)cc3c(OC)c2c1",
    "result-value": "51.7 µM"
  },
  {
    "molecule": "COc1ccc2c(c1O)-c1cc(O)cc3c1[C@@H](C2)N(C)CC3",
    "result-value": "241 µM"
  }
]

# input Give TGI for "Oc1ccc2c(c1)CCc1c-2n(CCN2CCOCC2)c2ccc(O)cc12" tested on K-562 leukemia.
# output > 100 µM

# input Give reported TGI for "CCOC(=O)c1ccc(Nc2sc(C(=O)c3ccc(Br)cc3)c(N)c2C#N)cc1" (K-562 leukemia)
# output > 100 µM

# input Lab note: record TGI of "O=C1NC(=S)N/C1=C\c1cc2c(=O)c3ccccc3sc2s1" tested on K-562 leukemia.
# output > 100 µM
